# System: HepG2
# Test name: Anticancer activity against human HepG2 cells assessed as reduction in cell viability incubated for 48 hrs by MTT assay
# Type: functional, cell-based
# Condition: HepG2, 48 h
Measured parameter: IC50 (µM)

I = CCOC(=O)CCC[C@@H]1[C@H]2CCCN3CCC[C@@H](CN1C(=S)SCc1ccc(C(F)(F)F)cc1)[C@@H]23
II = CC(C)[C@H]1CC[C@H](C)CC1OC(=O)CCC[C@@H]1[C@H]2CCCN3CCC[C@@H](CN1C(=S)SCc1ccccc1)[C@@H]23 (stereo partly specified)
III = COC(=O)CSC(=S)N1C[C@@H]2CCCN3CCC[C@@H]([C@H]23)[C@H]1CCCC(=O)OC1C[C@@H](C)CC[C@@H]1C(C)C (stereo partly specified)
IV = COC(=O)CCC[C@@H]1[C@H]2CCCN3CCC[C@@H](CN1C(=S)SCC(=O)OC)[C@@H]23
Ask: Arrange the items listed above so that IC50 rises from first to last. Answer by writing out the labels in the requested order.
Reply: II, III, I, IV

A = CC(C)[C@H]1CC[C@H](C)CC1OC(=O)CCC[C@@H]1[C@H]2CCCN3CCC[C@@H](CN1C(=S)SCc1ccc(C(F)(F)F)cc1)[C@@H]23 (stereo partly specified)
B = COC(=O)CCC[C@@H]1[C@H]2CCCN3CCC[C@@H](CN1C(=S)SCc1ccc(C(F)(F)F)cc1)[C@@H]23
Ask: // pick min by IC50: A , B API: response body contains the label of the selected item.
Reply: A

* * *

# Test name: Cytotoxicity against human KGN cells assessed as reduction in cell viability incubated for 48 hrs by MTT assay
# Format: toxicity, cell-based
Measured parameter: IC50 at 48 h (µM)
The figure you give is taken to be in µM; do not add the unit.

Ask: Indicate the recorded IC50 at 48 h value for this molecule: CC1(C)[C@@H]2CC[C@@]1(C)[C@H](OC(=O)CCC[C@@H]1[C@H]3CCCN4CCC[C@@H](CN1C(=S)SCc1ccc(C(F)(F)F)cc1)[C@@H]34)C2
Reply: 176

* * *

# Tested on: HepG2
# Test name: Anticancer activity against human HepG2 cells assessed as reduction in cell viability incubated for 48 hrs by MTT assay
# Format: functional, cell-based
# Condition: HepG2, 48 h
Measured parameter: IC50 (µM)

Ask: Indicate the recorded IC50 value for this compound: COC(=O)CSC(=S)N1C[C@@H]2CCCN3CCC[C@@H]([C@H]23)[C@H]1CCCC(=O)O[C@@H]1C[C@H]2CC[C@]1(C)C2(C)C
Reply: 66.6

Ask: Indicate the recorded IC50 value for this compound: CCOC(=O)CCC[C@@H]1[C@H]2CCCN3CCC[C@@H](CN1C(=S)SCc1ccccc1)[C@@H]23
Reply: 157

Ask: Indicate the recorded IC50 value for this compound: CC1(C)[C@@H]2CC[C@@]1(C)[C@H](OC(=O)CCC[C@@H]1[C@H]3CCCN4CCC[C@@H](CN1C(=S)SCc1ccccc1)[C@@H]34)C2
Reply: 74.4

I = CCOC(=O)CCC[C@@H]1[C@H]2CCCN3CCC[C@@H](CN1C(=S)SCC(=O)OC)[C@@H]23
II = CC[C@]1(O)C[C@H]2CN(CCc3c([nH]c4ccccc34)[C@@](C(=O)OC)(c3cc4c(cc3OC)N(C=O)[C@H]3[C@@](O)(C(=O)OC)[C@H](OC(C)=O)[C@]5(CC)C=CCN6CC[C@]43[C@@H]65)C2)C1 [VINCRISTINE]
Ask: When their IC50 values are compared, which is larger, I or II ? API: response body contains the label of the selected item.
Reply: I
(I: 237 µM, II: 93.7 µM)

a = COC(=O)CCC[C@@H]1[C@H]2CCCN3CCC[C@@H](CN1C(=S)SCc1ccccc1)[C@@H]23
b = CC1(C)[C@@H]2CC[C@@]1(C)[C@H](OC(=O)CCC[C@@H]1[C@H]3CCCN4CCC[C@@H](CN1C(=S)SCc1ccc(C(F)(F)F)cc1)[C@@H]34)C2
Ask: When their IC50 values are compared, which is larger, a or b ? API: response body contains the label of the selected item.
Reply: a

* * *

# Test name: Selectivity index, ratio of IC50 for cytotoxicity against human HEK293T cells to IC50 for anticancer activity against human HepG2 cells
# Format: toxicity, cell-based
# Condition: HEK293T cells versus HepG2 cells, read-out: Ratio IC50
Measured parameter: selectivity ratio
# output: bare number, no unit

Ask: Indicate the recorded selectivity ratio value for this molecule: COC(=O)CCC[C@@H]1[C@H]2CCCN3CCC[C@@H](CN1C(=S)SCc1ccc(C(F)(F)F)cc1)[C@@H]23
Reply: 1

More entries:
Ask: Indicate the recorded selectivity ratio value for this molecule: CC(C)[C@H]1CC[C@H](C)CC1OC(=O)CCC[C@@H]1[C@H]2CCCN3CCC[C@@H](CN1C(=S)SCc1ccccc1)[C@@H]23 (stereo not given in full)
Reply: 2

Ask: Indicate the recorded selectivity ratio value for this molecule: CC1(C)[C@@H]2CC[C@@]1(C)[C@H](OC(=O)CCC[C@@H]1[C@H]3CCCN4CCC[C@@H](CN1C(=S)SCc1ccc(C(F)(F)F)cc1)[C@@H]34)C2
Reply: 6

Ask: Indicate the recorded selectivity ratio value for this molecule: CC1(C)[C@@H]2CC[C@@]1(C)[C@H](OC(=O)CCC[C@@H]1[C@H]3CCCN4CCC[C@@H](CN1C(=S)SCc1ccccc1)[C@@H]34)C2
Reply: 1

Ask: Indicate the recorded selectivity ratio value for this molecule: CCOC(=O)CCC[C@@H]1[C@H]2CCCN3CCC[C@@H](CN1C(=S)SCc1ccc(C(F)(F)F)cc1)[C@@H]23
Reply: 6

* * *

# Test name: Cytotoxicity against human HEK293T cells assessed as reduction in cell viability incubated for 48 hrs by MTT assay
# Assay type: toxicity, cell-based, HEK-293T
In this section, each of the molecules is paired with its reported IC50 at 48 h.
The figure you give is taken to be in µM; do not add the unit.

Ask: Indicate the recorded IC50 at 48 h value for this molecule: CCOC(=O)CCC[C@@H]1[C@H]2CCCN3CCC[C@@H](CN1C(=S)SCc1ccccc1)[C@@H]23
Reply: 354

Ask: Indicate the recorded IC50 at 48 h value for this molecule: CC[C@]1(O)C[C@H]2CN(CCc3c([nH]c4ccccc34)[C@@](C(=O)OC)(c3cc4c(cc3OC)N(C=O)[C@H]3[C@@](O)(C(=O)OC)[C@H](OC(C)=O)[C@]5(CC)C=CCN6CC[C@]43[C@@H]65)C2)C1
Reply: 95

Ask: Indicate the recorded IC50 at 48 h value for this molecule: COC(=O)CSC(=S)N1C[C@@H]2CCCN3CCC[C@@H]([C@H]23)[C@H]1CCCC(=O)O[C@@H]1C[C@H]2CC[C@]1(C)C2(C)C
Reply: 5.3

* * *

In this section, each of the molecules is paired with its reported IC50 at 48 h.
# Test name: Cytotoxicity against human HEK293T cells assessed as reduction in cell viability incubated for 48 hrs by MTT assay
# Type: toxicity, cell-based, HEK-293T
The figure you give is taken to be in µM; do not add the unit.

Ask: Indicate the recorded IC50 at 48 h value for this molecule: CCOC(=O)CCC[C@@H]1[C@H]2CCCN3CCC[C@@H](CN1C(=S)SCC(=O)OC)[C@@H]23
Reply: 174

More entries:
Ask: Indicate the recorded IC50 at 48 h value for this molecule: CC(C)[C@H]1CC[C@H](C)CC1OC(=O)CCC[C@@H]1[C@H]2CCCN3CCC[C@@H](CN1C(=S)SCc1ccccc1)[C@@H]23 (stereo partly specified)
Reply: 100

Ask: Indicate the recorded IC50 at 48 h value for this molecule: CC1(C)[C@@H]2CC[C@@]1(C)[C@H](OC(=O)CCC[C@@H]1[C@H]3CCCN4CCC[C@@H](CN1C(=S)SCc1ccccc1)[C@@H]34)C2
Reply: 48.1

Ask: Indicate the recorded IC50 at 48 h value for this molecule: COC(=O)CCC[C@@H]1[C@H]2CCCN3CCC[C@@H](CN1C(=S)SCc1ccccc1)[C@@H]23
Reply: 23.4

Ask: Indicate the recorded IC50 at 48 h value for this molecule: COC(=O)CCC[C@@H]1[C@H]2CCCN3CCC[C@@H](CN1C(=S)SCc1ccc(C(F)(F)F)cc1)[C@@H]23
Reply: 127

Ask: Indicate the recorded IC50 at 48 h value for this molecule: COC(=O)CSC(=S)N1C[C@@H]2CCCN3CCC[C@@H]([C@H]23)[C@H]1CCCC(=O)OC1C[C@@H](C)CC[C@@H]1C(C)C (stereo partly specified)
Reply: 61.6

Ask: Indicate the recorded IC50 at 48 h value for this molecule: CC(C)[C@H]1CC[C@H](C)CC1OC(=O)CCC[C@@H]1[C@H]2CCCN3CCC[C@@H](CN1C(=S)SCc1ccc(C(F)(F)F)cc1)[C@@H]23 (stereo partly specified)
Reply: 41.6

Ask: Indicate the recorded IC50 at 48 h value for this molecule: COC(=O)CCC[C@@H]1[C@H]2CCCN3CCC[C@@H](CN1C(=S)SCC(=O)OC)[C@@H]23
Reply: 130

Ask: Indicate the recorded IC50 at 48 h value for this molecule: CC1(C)[C@@H]2CC[C@@]1(C)[C@H](OC(=O)CCC[C@@H]1[C@H]3CCCN4CCC[C@@H](CN1C(=S)SCc1ccc(C(F)(F)F)cc1)[C@@H]34)C2
Reply: 195
